# Assay procedure: Pharmacokinetic study of CLDN18.2-linker conjugates (serum ELISA, NCA)
# Format: in vivo, BALB/c mice
# Condition summary: BALB/c mice, intravenous, about 1 mg/kg, serum, over 48 hours
Measure name: log10(AUCall) (log10 of the value in ng·h/mL)
Please keep in mind that the values are log10 of AUCall expressed in ng·h/mL.

[[record]]
molecule = "CLDN18.2-L008: Claudin 18.2 sdAb (SEQ ID NO. 1) conjugated with functional linker L008 (conjugate, functional linker L008 conjugated) VHH: EVQLVESGGGLVQPGGSLRLSCAASGSFFRIVAMGWYRQAPGSQRELVATITRGGSTYYADSVKGRFTISRDNAKNTLYLQMNSLRAEDTAVYYCNVRVEVPFMQPNDYWGQGTLVTVSS"
measure_name = "log10(AUCall)"
assay_result = 3.27

[[record]]
molecule = "CLDN18.2-L011: Claudin 18.2 sdAb (SEQ ID NO. 1) conjugated with functional linker L011 (conjugate, functional linker L011 conjugated) VHH: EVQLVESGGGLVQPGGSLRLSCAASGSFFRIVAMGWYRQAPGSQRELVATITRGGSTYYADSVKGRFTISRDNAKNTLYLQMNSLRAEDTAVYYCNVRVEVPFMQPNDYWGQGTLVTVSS"
measure_name = "log10(AUCall)"
assay_result = 4.20

[[record]]
molecule = "CLDN18.2-L009: Claudin 18.2 sdAb (SEQ ID NO. 1) conjugated with functional linker L009 (conjugate, functional linker L009 conjugated) VHH: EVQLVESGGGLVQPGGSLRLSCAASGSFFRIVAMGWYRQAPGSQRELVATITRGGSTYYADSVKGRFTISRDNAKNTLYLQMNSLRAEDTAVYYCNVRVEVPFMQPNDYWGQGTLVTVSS"
measure_name = "log10(AUCall)"
assay_result = 5.17


Per the records, this molecule ( CLDN18.2-L006: Claudin 18.2 sdAb (SEQ ID NO. 1) conjugated with functional linker L006 (conjugate, functional linker L006 conjugated) VHH: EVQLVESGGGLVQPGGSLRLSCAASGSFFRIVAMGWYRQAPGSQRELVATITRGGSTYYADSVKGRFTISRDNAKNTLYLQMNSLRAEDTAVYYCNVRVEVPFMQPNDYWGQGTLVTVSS ) has log10(AUCall) equal to 2.81

Per the records, this molecule ( CLDN18.2-L003: Claudin 18.2 sdAb (SEQ ID NO. 1) conjugated with functional linker L003 (conjugate, functional linker L003 conjugated) VHH: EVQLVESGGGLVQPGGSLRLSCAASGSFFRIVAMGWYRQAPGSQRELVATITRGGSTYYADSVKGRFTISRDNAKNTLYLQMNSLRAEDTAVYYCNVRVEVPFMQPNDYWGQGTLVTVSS ) has log10(AUCall) equal to 2.66

Per the records, this molecule ( CLDN18.2-L010: Claudin 18.2 sdAb (SEQ ID NO. 1) conjugated with functional linker L010 (conjugate, functional linker L010 conjugated) VHH: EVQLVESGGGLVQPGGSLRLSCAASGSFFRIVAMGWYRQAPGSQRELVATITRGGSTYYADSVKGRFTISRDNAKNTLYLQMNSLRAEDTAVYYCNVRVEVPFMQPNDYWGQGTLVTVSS ) has log10(AUCall) equal to 4.16

Per the records, this molecule ( CLDN18.2-L005: Claudin 18.2 sdAb (SEQ ID NO. 1) conjugated with functional linker L005 (conjugate, functional linker L005 conjugated) VHH: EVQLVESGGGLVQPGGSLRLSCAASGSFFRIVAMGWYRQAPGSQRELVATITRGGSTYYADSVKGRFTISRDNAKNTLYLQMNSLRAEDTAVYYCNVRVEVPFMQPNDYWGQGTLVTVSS ) has log10(AUCall) equal to 2.94

Per the records, this molecule ( CLDN18.2-L012: Claudin 18.2 sdAb (SEQ ID NO. 1) conjugated with functional linker L012 (conjugate, functional linker L012 conjugated) VHH: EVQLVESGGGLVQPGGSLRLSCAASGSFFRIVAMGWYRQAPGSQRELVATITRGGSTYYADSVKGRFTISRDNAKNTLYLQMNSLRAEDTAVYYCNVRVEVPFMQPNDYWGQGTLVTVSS ) has log10(AUCall) equal to 3.35

Per the records, this molecule ( CLDN18.2-L007: Claudin 18.2 sdAb (SEQ ID NO. 1) conjugated with functional linker L007 (conjugate, functional linker L007 conjugated) VHH: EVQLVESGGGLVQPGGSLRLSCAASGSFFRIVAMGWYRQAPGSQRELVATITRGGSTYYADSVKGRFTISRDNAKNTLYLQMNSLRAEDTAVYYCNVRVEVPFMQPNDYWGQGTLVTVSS ) has log10(AUCall) equal to 4.52

Per the records, this molecule ( CLDN18.2-DOTAGA: Claudin 18.2 sdAb (SEQ ID NO. 1) conjugated with DOTAGA, used as control for chelating imaging radioisotope (conjugate, DOTAGA chelator conjugated) VHH: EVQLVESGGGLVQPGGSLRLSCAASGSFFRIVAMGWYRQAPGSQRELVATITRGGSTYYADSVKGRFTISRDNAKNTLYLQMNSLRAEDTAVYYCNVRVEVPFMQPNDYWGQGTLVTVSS ) has log10(AUCall) equal to 3.16
